// data source = the Human Domainome abundance scans (Beltran et al. 2025)

B1: Histone-lysine N-methyltransferase SETD2, residues 2382 to 2430; numbered along this chain, Q9BYW2 (parent)
chain: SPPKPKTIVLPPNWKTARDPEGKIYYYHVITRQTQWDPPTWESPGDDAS

- Variants of: B1
- assay.name: abundance fitness (aPCA) (normalised: wild type 0, dead -1); higher = more abundant; growth selection in yeast, the domain comes from the species named
- cond: Homo sapiens
Each entry gets not fulfilled if its abundance fitness stays under -0.3, and fulfilled if its abundance fitness is -0.3 or above.

Examples with answers:
SPPKPKTIVLPPNWKTAADPEGKIYYYHVITRQTQWDPPTWESPGDDAS | not fulfilled
SPPKPKTIVLPPNWKTARDPEGKIYYYHVITRQTQWDPPTWESPGGDAS | fulfilled
SPPKPKTIVLPPNWKTARDPEGKIYYYHVITRQTQWDPPTWESPGDDAP | fulfilled
SPPKPKTIVLPPNWKTANDPEGKIYYYHVITRQTQWDPPTWESPGDDAS | fulfilled
SPPKPKTIVLPPNWKTARDPEGKIYYYHVITRQTQWDPPTWESPGDDAR | fulfilled

INPUT: Record SPPKPKTIVLPPNWKTARDPEGKIYYYHVITRQTQWDPPTWELPGDDAS ; criterion: abundance fitness no lower than -0.3. Met?
OUTPUT: fulfilled

INPUT: Form field: abundance fitness at least -0.3? Entry: SPPKPKTIVLPPNWKTARDPEGKIYYYHVIRRQTQWDPPTWESPGDDAS
OUTPUT: not fulfilled

INPUT: Does the reported abundance fitness for SPPKPKTIVLPPNWKTARDPEGKVYYYHVITRQTQWDPPTWESPGDDAS fall at or above the -0.3 mark?
OUTPUT: not fulfilled

INPUT: Hi, just wondering whether SPPKPKTIVLPPNWKTARDPEGKIYYYHVITRQTQWPPPTWESPGDDAS shows abundance fitness of -0.3 or higher.
OUTPUT: not fulfilled

INPUT: Tell me whether abundance fitness is at least -0.3 here: SPPKPKTIVLPPNWKTARDPEGKIYYYHVITRQWQWDPPTWESPGDDAS
OUTPUT: fulfilled

INPUT: Check the entry SPPKPKTIVLPPNWKTARDPEGKIYFYHVITRQTQWDPPTWESPGDDAS : does abundance fitness equal or exceed -0.3?
OUTPUT: not fulfilled

INPUT: Does the reported abundance fitness for SPPKPKTIVLPPNWKTARDPEGKIYYYHVITRQTQWDPPTWESPGDDAM fall at or above the -0.3 mark?
OUTPUT: fulfilled

INPUT: Can SPPKTKTIVLPPNWKTARDPEGKIYYYHVITRQTQWDPPTWESPGDDAS be said to have abundance fitness at or above -0.3?
OUTPUT: fulfilled

INPUT: Could you please find out whether SMPKPKTIVLPPNWKTARDPEGKIYYYHVITRQTQWDPPTWESPGDDAS has abundance fitness that meets -0.3 or exceeds it?
OUTPUT: fulfilled

INPUT: Item SPPKPKTIVLPPNWKTARDPEGKIYYYHVITRQTQFDPPTWESPGDDAS with abundance fitness of -0.3 or above?
OUTPUT: fulfilled

INPUT: Is abundance fitness at least -0.3? Consider SPPKPKTIVLPPNWKTARDPEGKIYYYHVITRQTQWDPPTWESPGDRAS
OUTPUT: fulfilled

INPUT: Confirm if abundance fitness reported for the variant SPPKPKTIVLPPNWKTARDPEGKIYYYHVITRQTTWDPPTWESPGDDAS is -0.3 or above.
OUTPUT: fulfilled

INPUT: Quick check: does SPPKPKTIVLPPNWKTARDPEGKIPYYHVITRQTQWDPPTWESPGDDAS have abundance fitness greater than or equal to -0.3?
OUTPUT: not fulfilled

INPUT: Test whether the variant SPPKPKTIVLPPNWKTARDPEGKIVYYHVITRQTQWDPPTWESPGDDAS records abundance fitness of -0.3 or higher.
OUTPUT: not fulfilled
